assay overview: qHTS Assay for Agonists of the Thyroid Stimulating Hormone Receptor: Activators of Intracellular cAMP Concentrations in Parental HEK 293; further: nearly all actives have a fitted effect of over 55% in size
condition notes: parental HEK293 CNG cAMP sensor, membrane potential fluorescence; series mostly up to 57.1 µM
The whole screen tested about 73,000 compounds, of which about 1,800 (2.5%) were called active. Another 13% or so got no clear call; they are omitted. The call rests on the fitted dose curve; in most records, active means well fitted activation curve with a large enough effect; inconclusive means small, poorly fitted or top-dose-only effect; inactive means no such curve, though single readings can be large or run the other way. The list comes from a sample in which actives are over-represented; it also holds close analogues and randomly drawn compounds.
Please reply with one of these outcomes: active, inactive

Each molecule tested received a call. Report the one for O=C(O)CC(C(=O)O)C(CC(=O)O)C(=O)O (stereo not given) . inactive

Each molecule tested received a call. Report the one for `COc1ccc(OCc2cccc(C(=O)N3CCCC3)c2)cc1` . inactive

Each molecule tested received a call. Report the one for `Fc1ccc(OCc2nn3c(Cn4nnc5ccccc54)nnc3s2)cc1` . inactive

Each molecule tested received a call. Report the one for `Cc1cc(C)nc(N2CCN(c3ncnc4c3oc3ccccc34)CC2)n1` . inactive

Each molecule tested received a call. Report the one for `O=C(O)c1ccc(Cl)c(S(=O)(=O)Nc2ccccc2Cl)c1` . inactive

Each molecule tested received a call. Report the one for `O=C(CSc1nnc(-c2ccccc2)o1)N1CCOCC1` . inactive

Each molecule tested received a call. Report the one for CC(C)CNC(=O)C1CCCN(S(=O)(=O)c2ccc(-n3cnnn3)cc2)C1 (stereo not given) . inactive

Each molecule tested received a call. Report the one for COc1ccc(CCn2nnnc2C(c2ccccc2)N2CCN(C)CC2)cc1OC (stereo not given) . inactive

Each molecule tested received a call. Report the one for CCC(c1nnnn1Cc1ccco1)N(Cc1cc2cc(OC)ccc2[nH]c1=O)C1CCCCC1 (stereo not given) . active

Each molecule tested received a call. Report the one for `COC(=O)[C@@]1(Cc2ccccc2)[C@H]2c3cc(C(=O)N4CCCC4)n(Cc4ccc(C)o4)c3C[C@H]2CN1C(=O)c1ccccc1` . active

Each molecule tested received a call. Report the one for CCC(c1nnnn1Cc1ccco1)N(CCc1ccccc1)Cc1cc2cccc(C)c2[nH]c1=O (stereo not given) . active

Each molecule tested received a call. Report the one for `O=C(CCSc1ccccc1)NCCSc1ccccn1` . inactive

Each molecule tested received a call. Report the one for `Cn1c2c(c(=O)n(C)c1=O)CN(Cc1ccco1)CN2` . inactive

Each molecule tested received a call. Report the one for `COC(=O)[C@@]1(Cc2ccc(F)cc2)[C@H]2c3cc(C(=O)N4CCCC4)n(Cc4ccc(OC(F)(F)F)cc4)c3C[C@H]2CN1C(=O)c1ccccc1` . active

Each molecule tested received a call. Report the one for N/C(=N\c1nc2ccccc2o1)NC(=O)C(Cc1ccccc1)N1C(=O)c2ccccc2C1=O (stereo not given) . inactive

Each molecule tested received a call. Report the one for N#Cc1ccc(C(c2nnnn2CCc2ccccc2)N2CCCCCC2)cc1 (stereo not given) . active

Each molecule tested received a call. Report the one for `COC(=O)[C@@]1(Cc2ccc(F)cc2)[C@@H]2[C@@H](CC(=O)[C@H]2CC(=O)C(=O)N2CCCC2)CN1C(=O)c1ccccc1` . inactive

Each molecule tested received a call. Report the one for CC1CCCN(Cc2nc3c(c(=O)n(C)c(=O)n3C)n2CC(=O)c2ccccc2)C1 (stereo not given) . inactive

Each molecule tested received a call. Report the one for CCOC(=O)c1ccc(N2C(=O)CC(N3CCC(C(=O)OCC)CC3)C2=O)cc1 (stereo not given) . inactive

Each molecule tested received a call. Report the one for `CC1(C)S[C@@H]2[C@@H](NC(=O)[C@@H](N)c3ccccc3)C(=O)N2[C@H]1C(=O)O` . inactive
